# Test system: MRSA
# Assay Method Text: Antibacterial susceptibility testing, MRSA
# Type: cell-based, methicillin resistant Staphylococcus aureus
# Condition Info: Staphylococcus aureus, Table 2, read-out: MRSA MIC
Readout Name: MIC (µg/mL)

Recorded MIC for C[n+]1cccc(N(CCCCCC2CCCCC2)c2ccccc2)c1 with MRSA, please?
5

Kindly state the measured MIC obtained for Clc1ccc(Nc2cc3ccccc3[n+](CCCCCc3ccccc3)c2)cc1 with MRSA.
3.1

Provide value of MIC for this record tested with MRSA: C[n+]1cccc(N(CCCCCC2CCCCC2)c2ccc3ccccc3c2)c1
0.78

For the record C[n+]1cc(N(CCCCCC2CCCCC2)c2ccc3ccccc3c2)cc2ccccc21 , what value of MIC is listed for MRSA?
0.78

[I] C[n+]1cc(N(CCCCCC2CCCCC2)c2ccsc2)cc2ccccc21
[II] c1ccc(Nc2cc3ccccc3[n+](CCCCCC3CCCCC3)c2)cc1
Lab note: record which item had the higher MIC, I or II . API: response body contains the label of the selected item.
II
(II: 1.6 µg/mL, I: 0.63 µg/mL)

---

# Tested on: Cryptococcus neoformans ATCC 90113
# Assay Method Text: Antifungal susceptibility testing, Cryptococcus neoformans
# Assay type: cell-based
# Condition Info: Table 3
Readout Name: Cn IC50 (µg/mL)
I only need the number, in µg/mL, no unit after it.

Some compounds with recorded Cn IC50:
What does the data say about its Cn IC50? Entry: C[n+]1cc2c(c3ccc(C(F)(F)F)cc3n2CCCCCC2CCCCC2)c2ccccc21.[I-]
0.85

I'd like to know its Cn IC50. The compound in question is FC(F)(F)c1ccc2[nH]c3c[n+](CCCCCC4CCCCC4)c4ccccc4c3c2c1.[I-]
9.0

Would you mind telling me what Cn IC50 value was observed for C[n+]1cc2c(c3ccc(Cl)cc3n2CCCCCC2CCCCC2)c2ccccc21.[I-] ?
0.80

# input compound: C[n+]1cc2c(c3ccccc3n2CCCCCC2CCCCC2)c2ccccc21.[I-] ; wanted: its Cn IC50
1.5

Next:
Which value of Cn IC50 has been reported for C[C@@H]1[C@H](O)[C@@H](C)/C=C/C=C/C=C/C=C/C=C/C=C/C=C/[C@H](O[C@@H]2O[C@H](C)[C@@H](O)[C@H](N)[C@@H]2O)C[C@@H]2O[C@](O)(C[C@@H](O)C[C@@H](O)[C@H](O)CC[C@@H](O)C[C@@H](O)CC(=O)O[C@H]1C)C[C@H](O)[C@H]2C(=O)O [Amph B, Amphotericin B, reference compound] in the records?
0.85

---

# Tested on: Cryptococcus neoformans ATCC 90113
# Assay Method Text: Antifungal susceptibility testing, Cryptococcus neoformans
# Assay type: cell-based
# Condition Info: ATCC90113, Table 2, read-out: Cn IC50
Readout Name: IC50 (mg/L)

Query: IC50; subject: C[n+]1cc(N(CCCCCC2CCCCC2)c2ccsc2)cc2ccccc21
0.45

[a] c1ccc(Nc2cc3ccccc3[n+](CCCCCC3CCCCC3)c2)cc1
[b] C[n+]1cccc(N(CCCCCC2CCCCC2)c2ccc3ccccc3c2)c1
[c] C[n+]1cccc(N(CCCCCC2CCCCC2)c2ccccc2)c1
[d] C[n+]1cc(N(CCCCCC2CCCCC2)c2ccc3ccccc3c2)cc2ccccc21
[e] Clc1ccc(Nc2cc3ccccc3[n+](CCCCCc3ccccc3)c2)cc1
In this exercise, place the 5 molecules in ascending sequence of their recorded IC50. In plain terms: list the labels in the order you were asked to.
d, a, b, c, e
(d: 0.35 mg/L, a: 0.55 mg/L, b: 0.85 mg/L, c: 1.5 mg/L, e: 4 mg/L)
